- experimental_target: human MAO-B (Homo sapiens)
- Sequence (P27338 1-520): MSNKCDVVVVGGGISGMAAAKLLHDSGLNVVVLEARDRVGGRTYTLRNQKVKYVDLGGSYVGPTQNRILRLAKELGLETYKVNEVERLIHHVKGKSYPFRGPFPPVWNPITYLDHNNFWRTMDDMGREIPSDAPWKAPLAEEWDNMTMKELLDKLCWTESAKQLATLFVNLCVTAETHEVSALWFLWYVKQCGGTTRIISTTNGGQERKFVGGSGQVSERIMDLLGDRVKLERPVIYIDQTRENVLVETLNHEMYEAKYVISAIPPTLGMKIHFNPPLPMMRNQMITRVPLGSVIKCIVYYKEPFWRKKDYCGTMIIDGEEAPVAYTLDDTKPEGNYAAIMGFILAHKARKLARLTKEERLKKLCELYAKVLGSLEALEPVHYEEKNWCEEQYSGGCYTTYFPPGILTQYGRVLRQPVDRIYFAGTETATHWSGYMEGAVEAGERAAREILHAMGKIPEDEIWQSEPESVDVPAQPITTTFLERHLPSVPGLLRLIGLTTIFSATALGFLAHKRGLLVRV
endpoint_label: IC50 (nM)
Please respond with the number in nM and leave the unit unwritten.

In [3]: df
Out[3]:
                                 smiles_str  recorded_measurement
0      NC(=O)CNC(=O)c1ccc(OCc2cccc(F)c2)cn1                    28
1      NC(=O)CNC(=O)c1ccc(OCc2cccc(F)c2)nc1                    30
2  C[C@H](NC(=O)c1ccc(OCc2ccc(F)cc2)cn1)C(N)=O                    70

So what does the record say about IC50 for "NC(=O)CNC(=O)c1ccc(OCc2ccccc2)nc1" ? 33

---

- experimental_target: human MAO-A (Homo sapiens, UniProt P21397)
- Sequence (P21397 1-527): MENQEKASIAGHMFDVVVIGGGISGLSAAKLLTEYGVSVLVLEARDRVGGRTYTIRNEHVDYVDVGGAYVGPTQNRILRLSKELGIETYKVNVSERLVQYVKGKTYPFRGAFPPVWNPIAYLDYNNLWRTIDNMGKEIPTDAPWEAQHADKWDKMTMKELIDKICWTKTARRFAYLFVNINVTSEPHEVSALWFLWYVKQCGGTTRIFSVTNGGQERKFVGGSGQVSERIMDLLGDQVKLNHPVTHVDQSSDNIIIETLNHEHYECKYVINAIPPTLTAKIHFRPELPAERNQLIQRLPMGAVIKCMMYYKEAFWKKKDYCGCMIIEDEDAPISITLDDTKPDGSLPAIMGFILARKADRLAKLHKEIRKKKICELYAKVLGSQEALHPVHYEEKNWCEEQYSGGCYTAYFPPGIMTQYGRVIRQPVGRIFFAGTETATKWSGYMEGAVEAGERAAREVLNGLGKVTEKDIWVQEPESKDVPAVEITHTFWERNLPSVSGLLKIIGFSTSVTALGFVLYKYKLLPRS
In this section, each of the compounds is paired with its reported IC50.

                                 smiles_str                       experimental_target  recorded_measurement
0  C[C@H](NC(=O)c1ccc(OCc2ccc(F)cc2)cn1)C(N)=O  human MAO-A (Homo sapiens, UniProt P21397)               > 10 µM

So what does the record say about IC50 for "NC(=O)CNC(=O)c1ccc(OCc2ccc(F)cc2)cn1" ? > 10 µM
